Test system: RD-ES
Test: MTS GI50, Myc-dependent panel
Type: cell-based
Conditions: 72 h, read-out: GI50
Exercise: state measured GI50 for each of the compounds provided.
Numbers only, in nM.

# map each compound to its GI50
1. COc1cc2c3c(n(CCCN4CCOCC4)c(=O)c2cc1OC)-c1nc2c(cc1C3=O)OCO2
2. CC[C@@]1(O)C(=O)OCc2c1cc1n(c2=O)Cc2cc3ccccc3nc2-1
3. COc1cc2c3c(n(CCCNC(C)C)c(=O)c2cc1OC)-c1nc2c(cc1C3=O)OCO2
4. COc1cc2c3c(n(CCCN4CCOCC4)c(=O)c2cc1OC)-c1cc2c(cc1C3=O)OCO2
5. COc1cc2c3c(n(CCCn4ccnc4)c(=O)c2cc1OC)-c1nc2c(cc1C3=O)OCO2

Reply:
1: 608; 2: 5; 3: 31; 4: 472; 5: 180
